Provide the recorded MONOCYTE for the entries that follow.
- Species on record: Rattus norvegicus
- methodSummary: DrugMatrix - Regimen: Daily Repeat
- Format: toxicity, organism-based, Sprague-Dawley
- Set-up: regimen Daily Repeat, gender Male, age 6-8 weeks
- runConditions: in vivo, po, 0 mg/kg, 120 h, tissue Blood, route oral GAVAGE, dose level Control, time 5 day, vehicle .5 % CMC
Give the value in % but do not write % after it.

MONOCYTE lookup needed for NC(=O)NC(=O)Cc1ccccc1 [PHENACEMIDE] , thanks.
1

Record: CC(C)NCC(O)COc1ccc(CC(N)=O)cc1 (stereo unspecified) [ATENOLOL]
0.83

What do you have for CCOc1cc(N)c(Cl)cc1C(=O)NCC1CN(Cc2ccc(F)cc2)CCO1 (stereo unspecified) [MOSAPRIDE] ?
0.83

Okay, and O=C(O)CCc1nc(-c2ccccc2)c(-c2ccccc2)o1 [OXAPROZIN] ?
0.17

Cc1cc2c(s1)Nc1ccccc1N=C2N1CCN(C)CC1 [OLANZAPINE] , same question.
0.67

What do you have for COc1cc(NC(C)CCCN)c2ncccc2c1 (stereo unspecified) [PRIMAQUINE] ?
1.67

// repeat for NCC(CC(=O)O)c1ccc(Cl)cc1 (stereo unspecified) [BACLOFEN] and report
0.83

Now consider CCN1C[C@]2(COC)[C@H](O)C[C@H](OC)[C@@]34[C@@H]5C[C@@]6(O)[C@H](OC(=O)c7ccccc7)[C@@H]5[C@@](OC(C)=O)([C@@H]([C@H](OC)[C@H]23)[C@@H]14)[C@@H](O)[C@@H]6OC [ACONITINE] and answer again.
2.2

Continue with CC(C)(C#N)c1cc(Cn2cncn2)cc(C(C)(C)C#N)c1 [ANASTROZOLE]
0.33

Would you kindly repeat that for COc1cc(/C=C/C(=O)O)ccc1O [FERULATE] ?
2

Record: CCN1CCN(c2cc3c(cc2F)c(=O)c(C(=O)O)cn3C2CC2)CC1 [ENROFLOXACIN]
0.2

----------
- Species on record: Rattus norvegicus
- methodSummary: DrugMatrix - Regimen: Daily Repeat
- Format: toxicity, organism-based, Sprague-Dawley
- Design: regimen Daily Repeat, gender Male, age 6-8 weeks
- runConditions: in vivo, po, 0 mg/kg, 120 h, tissue Plasma, route oral GAVAGE, dose level Control, time 5 day, […]
For each record, write down the corresponding CREATININE.
Kindly answer with a numeric value in mg/dL, unit omitted.

Need CREATININE of O=C(O)COC(=O)Cc1ccccc1Nc1c(Cl)cccc1Cl [ACECLOFENAC] , thanks.
0.2

Can you handle Cc1cccc(C)c1NC(=O)C(C)N (stereo not drawn) [TOCAINIDE] next?
0.2

And what about the molecule Oc1ncnc2[nH]ncc12 [ALLOPURINOL] ?
0.2

----------
Give measured MEAN CORPUSCULAR HEMOGLOBIN CONCENTRATION for each item. Keep answers brief.
- Organism: Rattus norvegicus
- methodSummary: DrugMatrix - Regimen: Daily Repeat
- Type: toxicity, organism-based, Sprague-Dawley
- Parameters: regimen Daily Repeat, gender Male, age 6-8 weeks
- runConditions: in vivo, po, 0 mg/kg, 72 h, tissue Blood, route oral GAVAGE, dose level Control, time 3 day, vehicle 100 % WATER
Provide only the numeric value, understood in G/DL.

Recorded MEAN CORPUSCULAR HEMOGLOBIN CONCENTRATION of CCN(CC)C(=S)SSC(=S)N(CC)CC , please.
39.95

# repeat for CN1C(=O)OC(C)(C)C1=O
40.28

Field entry: C[N+](C)(C)CCOC(N)=O.[Cl-]
38.63

Same thing, different compound: Cc1cn([C@H]2C=C[C@@H](CO)O2)c(=O)[nH]c1=O
38.63

Next up: CC(Cl)(Cl)Cl
39.15

What about CCC1(c2ccccc2)C(=O)NC(=O)NC1=O ?
39.13

Do the same for NN [HYDRAZINE] please
38.7

Cool, now C1CCN2C[C@@H]3C[C@@H](CN4CCCC[C@@H]34)[C@H]2C1
39.15
